species on record: Homo sapiens; test: Selectivity index, ratio of Ki for recombinant human CB1R expressed in HEK293 cell membranes to Ki for recombinant human CB2R expressed in HEK293 cell membranes; type: cell-based
Assign Ratio Ki to each entry below.

Example cases with answers are listed next.
Cc1nc(-c2ccccc2)sc1C(=O)N1CCOCC1	> 3
CCCCCn1/c(=N/C(=O)c2ccc(C(F)(F)F)cc2)sc2ccccc21	393
O=C(NC1CCCc2ccccc21)c1nc2ccccc2s1 (stereo not drawn)	3
Cc1nc(C)c(C(=O)NC23CC4CC(CC(C4)C2)C3)s1	> 6
O=C(Nc1nc2ccccc2s1)C12CC3CC(CC(C3)C1)C2	> 36

// for each molecule in input: emit Ratio Ki
1. Cc1nc(-c2ccccc2)sc1C(=O)NC1CCCc2ccccc21 (stereo not drawn)
2. O=C(NCc1ccccc1Cl)c1nc2ccccc2s1
3. CCCCCn1/c(=N/C(=O)c2cccc(C(F)(F)F)c2)sc2ccccc21

1: > 4; 2: > 9; 3: 429

Entry source: ChEMBL document CHEMBL4364306
